# Tested on: RKO
# test.protocol: Antiproliferative activity against human RKO cells at 10 uM after 72 hrs by MTT assay
# Type: functional, cell-based
Activity calls are given as the source filed them. No cut-off for these calls is given here.

- smiles.input: "COc1cc(/C=C2\\CCC/C(=C\\c3ccccc3Br)C2=O)cc(OC)c1OC"
  target: "RKO"
  Activity: "Active"
- smiles.input: "COc1ccc(/C=C2\\CCC/C(=C\\c3cc(OC)c(OC)c(OC)c3)C2=O)cc1OC"
  target: "RKO"
  Activity: "Active"
- smiles.input: "COc1cccc(/C=C2\\CCC/C(=C\\c3cc(OC)c(OC)c(OC)c3)C2=O)c1OC"
  target: "RKO"
  Activity: "Active"
- smiles.input: "COc1ccccc1/C=C1\\CCC/C(=C\\c2cc(OC)c(OC)c(OC)c2)C1=O"
  target: "RKO"
  Activity: "Active"

---

# Tested on: SW-620
# test.protocol: Antiproliferative activity against human SW620 cells assessed as reduction in cell viability after 72 hrs by MTT assay
# Type: functional, cell-based
# run.parameters: SW-620, 72 h
# note: boundary value 2 µM maps to F; IC50 below it maps to T

## Input In plain terms, does `COc1cc(/C=C2\CCC/C(=C\c3ccc(O)c(Cl)c3)C2=O)cc(OC)c1OC` come in under 2 µM for IC50?
## Output T

## Input Does the reported IC50 of the following molecule sit strictly below 2 µM? `COc1ccc(/C=C2\CCC/C(=C\c3cc(OC)c(OC)c(OC)c3)C2=O)cc1OC`
## Output T

## Input Is IC50 of `O=c1[nH]cc(F)c(=O)[nH]1` strictly below 2 µM?
## Output F

## Input Please determine if `COc1cc(/C=C2\CCC/C(=C\c3ccccc3Br)C2=O)cc(OC)c1OC` is below 2 µM in terms of IC50.
## Output F

## Input Field: below-cutoff. Rule: recorded IC50 strictly less than 2 µM. Subject: `COc1cc(/C=C2\CCC/C(=C\c3ccc(F)c(F)c3)C2=O)cc(OC)c1OC`
## Output F

## Input I'd appreciate it if you could check whether `COc1cccc(/C=C2\CCC/C(=C\c3cc(OC)c(OC)c(OC)c3)C2=O)c1OC` has IC50 smaller than 2 µM.
## Output F

## Input Is it true that IC50 reported for `COc1cc(/C=C2\CCC/C(=C\c3cccc(O)c3)C2=O)cc(OC)c1OC` is less than 2 µM?
## Output F

## Input Just wondering, is IC50 of `COc1cc(/C=C2\CCC/C(=C\c3ccc(O)c(O)c3)C2=O)cc(OC)c1OC` below 2 µM?
## Output F

## Input Could you please tell me whether IC50 recorded for `COc1cc(/C=C2\CCC/C(=C\c3ccccc3F)C2=O)cc(OC)c1OC` is less than 2 µM?
## Output F

---

# test.protocol: Therapeutic index, ratio of IC50 for human NHDF cells to IC50 for human HT-29 cells after 72 hrs
# Type: toxicity
# run.parameters: NHDF cells versus HT-29 cells, read-out: Ratio IC50
Assignment: determine reported selectivity ratio at 72 h for the given molecules.

## Input Give the measured selectivity ratio at 72 h of `COc1cc(/C=C2\CCC/C(=C\c3ccc(O)c(O)c3)C2=O)cc(OC)c1OC` .
## Output 1.1 to 3.3

## Input Dear colleague, I am looking for the recorded selectivity ratio at 72 h of the following molecule: `COc1cccc(/C=C2\CCC/C(=C\c3cc(OC)c(OC)c(OC)c3)C2=O)c1OC`
## Output 3.9 to 7.2

## Input Reported selectivity ratio at 72 h, molecule `COc1cc(/C=C2\CCC/C(=C\c3ccccc3Br)C2=O)cc(OC)c1OC` : ____
## Output 3 to 5

## Input Item under review: `COc1cc(/C=C2\CCC/C(=C\c3ccc(O)c(Cl)c3)C2=O)cc(OC)c1OC` . Reported selectivity ratio at 72 h?
## Output 1.8 to 9.9

## Input Tell me the measured selectivity ratio at 72 h of `COc1ccccc1/C=C1\CCC/C(=C\c2cc(OC)c(OC)c(OC)c2)C1=O` , please.
## Output 3.6 to 7.2

---

# test.protocol: Therapeutic index, ratio of IC50 for human NHDF cells to IC50 for human LoVo cells after 72 hrs
# Format: toxicity
# run.parameters: NHDF cells versus LoVo cells, read-out: Ratio IC50
metric: selectivity ratio at 72 h

## Input Consider the compound shown here: `COc1cc(/C=C2\CCC/C(=C\c3ccccc3F)C2=O)cc(OC)c1OC` What is its recorded selectivity ratio at 72 h?
## Output 1.8 to 2.7

## Input Can you look up the measured selectivity ratio at 72 h of `COc1cc(/C=C2\CCC/C(=C\c3ccc(F)c(F)c3)C2=O)cc(OC)c1OC` for me?
## Output 2.7 to 6.5

## Input Report selectivity ratio at 72 h for `COc1cc(/C=C2\CCC/C(=C\c3ccc(O)c(O)c3)C2=O)cc(OC)c1OC` please.
## Output 1.1 to 3.3

## Input Suppose we examine the compound `COc1cc(/C=C2\CCC/C(=C\c3ccc(O)c(Cl)c3)C2=O)cc(OC)c1OC` ; what selectivity ratio at 72 h value has been reported?
## Output 1.8 to 9.9

## Input Query (compound): `COc1cccc(/C=C2\CCC/C(=C\c3cc(OC)c(OC)c(OC)c3)C2=O)c1OC` ; field requested: selectivity ratio at 72 h
## Output 3.9 to 7.2

---

Task for the reader: assign each of the following compounds its reported pIC50.
# Tested on: NHDF
# test.protocol: Cytotoxicity against human NHDF cells assessed as reduction in cell viability
# Type: cell-based
// pIC50 here means minus log10 of the molar concentration (mol/L)

## Input Given `COc1ccccc1/C=C1\CCC/C(=C\c2cc(OC)c(OC)c(OC)c2)C1=O` , state its recorded pIC50.
## Output 5.10

## Input Recorded pIC50 of `COc1cc(/C=C2\CCC/C(=C\c3ccc(O)c(Cl)c3)C2=O)cc(OC)c1OC` , please.
## Output 5.16

## Input Data request, read-out pIC50, for `COc1cc(/C=C2\CCC/C(=C\c3ccc(F)c(F)c3)C2=O)cc(OC)c1OC`
## Output 4.95

## Input Need pIC50, item `COc1cc(/C=C2\CCC/C(=C\c3ccccc3Br)C2=O)cc(OC)c1OC`
## Output 4.91

---

# test.protocol: Therapeutic index, ratio of IC50 for human NHDF cells to IC50 for human HT-29 cells after 72 hrs
# Assay type: toxicity
# run.parameters: NHDF cells versus HT-29 cells, read-out: Ratio IC50
metric: selectivity ratio at 72 h

## Input # selectivity ratio at 72 h lookup, item `COc1cc(/C=C2\CCC/C(=C\c3ccccc3F)C2=O)cc(OC)c1OC`
## Output 1.8 to 2.7

## Input Value lookup for selectivity ratio at 72 h; key = `COc1ccc(/C=C2\CCC/C(=C\c3cc(OC)c(OC)c(OC)c3)C2=O)cc1OC`
## Output 3.1 to 4.5

## Input Given the molecule `COc1cc(/C=C2\CCC/C(=C\c3cccc(O)c3)C2=O)cc(OC)c1OC` , what is its reported selectivity ratio at 72 h?
## Output 3.3 to 5.3

## Input Need selectivity ratio at 72 h, item `COc1cc(/C=C2\CCC/C(=C\c3ccc(F)c(F)c3)C2=O)cc(OC)c1OC`
## Output 2.7 to 6.5

---

# test.protocol: Therapeutic index, ratio of IC50 for human NHDF cells to IC50 for human RKO cells after 72 hrs
# Format: toxicity
# run.parameters: NHDF cells versus RKO cells, read-out: Ratio IC50
Would you mind telling me the reported selectivity ratio at 72 h of each entry?

## Input # query: selectivity ratio at 72 h of entry `COc1cccc(/C=C2\CCC/C(=C\c3cc(OC)c(OC)c(OC)c3)C2=O)c1OC`
## Output 3.9 to 7.2

## Input Data request, read-out selectivity ratio at 72 h, for `COc1cc(/C=C2\CCC/C(=C\c3cccc(O)c3)C2=O)cc(OC)c1OC`
## Output 3.3 to 5.3

## Input // lookup selectivity ratio at 72 h for `COc1cc(/C=C2\CCC/C(=C\c3ccc(O)c(Cl)c3)C2=O)cc(OC)c1OC`
## Output 1.8 to 9.9

## Input What does the data say about its selectivity ratio at 72 h? Entry: `COc1cc(/C=C2\CCC/C(=C\c3ccc(O)c(O)c3)C2=O)cc(OC)c1OC`
## Output 1.1 to 3.3

## Input Find the recorded selectivity ratio at 72 h belonging to `COc1ccccc1/C=C1\CCC/C(=C\c2cc(OC)c(OC)c(OC)c2)C1=O` and report it.
## Output 3.6 to 7.2

## Input selectivity ratio at 72 h for `COc1cc(/C=C2\CCC/C(=C\c3ccc(F)c(F)c3)C2=O)cc(OC)c1OC` ?
## Output 2.7 to 6.5

## Input So what does the record say about selectivity ratio at 72 h for `COc1ccc(/C=C2\CCC/C(=C\c3cc(OC)c(OC)c(OC)c3)C2=O)cc1OC` ?
## Output 3.1 to 4.5

## Input Would you mind telling me what selectivity ratio at 72 h value was observed for `COc1cc(/C=C2\CCC/C(=C\c3ccccc3F)C2=O)cc(OC)c1OC` ?
## Output 1.8 to 2.7

## Input Please report the recorded selectivity ratio at 72 h for `COc1cc(/C=C2\CCC/C(=C\c3ccccc3Br)C2=O)cc(OC)c1OC` .
## Output 3 to 5
